# system name: T1, human ferroportin (SLC40A1) fused in frame with GFP, stably expressed in HEK293 cells (human, UniProt Q9NP59 1-571)
# T1 sequence (looked up): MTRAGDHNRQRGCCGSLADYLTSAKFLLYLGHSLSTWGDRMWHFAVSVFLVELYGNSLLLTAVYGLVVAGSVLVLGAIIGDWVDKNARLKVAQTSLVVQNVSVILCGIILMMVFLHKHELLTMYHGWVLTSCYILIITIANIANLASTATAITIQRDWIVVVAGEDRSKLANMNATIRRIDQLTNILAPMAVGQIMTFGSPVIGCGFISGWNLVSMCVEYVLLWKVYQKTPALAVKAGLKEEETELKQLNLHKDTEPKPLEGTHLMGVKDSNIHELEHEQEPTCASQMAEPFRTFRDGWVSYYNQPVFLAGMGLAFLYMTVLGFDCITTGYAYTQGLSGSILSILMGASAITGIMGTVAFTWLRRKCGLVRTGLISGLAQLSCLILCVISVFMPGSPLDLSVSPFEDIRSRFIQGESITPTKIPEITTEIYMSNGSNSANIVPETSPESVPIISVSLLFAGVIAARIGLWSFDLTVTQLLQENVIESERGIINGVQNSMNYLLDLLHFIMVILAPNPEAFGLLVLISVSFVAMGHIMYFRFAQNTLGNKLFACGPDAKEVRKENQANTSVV
# assay details: cell-based or functional assay
Positions of bridges follow the written chain, without caps; N, C: chain ends. Non-standard residues stand in square brackets, D forms with d. Groups on a side chain read outwards from the residue. *: point of attachment. Dip = N[C@H](C(=O)O)C(c1ccccc1)c1ccccc1; Palmitoyl = CCCCCCCCCCCCCCCC(=O)*; β3hF = N[C@H](CC(=O)O)Cc1ccccc1; Isovaleryl = CC(C)CC(=O)*; Dap = NC[C@H](N)C(=O)O; Ahx = NCCCCCC(=O)O
Quick reference: IC50: FPN internalisation of the listed items.
Output should be the measured figure followed by the unit it is expressed in.

{"binder": "Isovaleryl-[Dap]TH[Dip]PCI[dK][β3hF]K([Ahx-Palmitoyl])[dR]C-NH2 (disulfide 6-12 (inferred)) [Seq. No. 502]", "reported result": "55.7 nM"}

Here is the next item to consider.
// IC50: FPN internalisation lookup, binder = Isovaleryl-ETH[Dip]PCA[dK][β3hF]K([Ahx-Palmitoyl])[dK]C-NH2 (not fully specified (bridges); cysteine pairing not given here) [Seq. No. 573] , result: 6.47 nM
